Test system: SK-MEL-28
MEASUREMENT DESCRIPTION: NCI tumour cell line growth inhibition, 48 h
Calls of active or inactive are those of the source. Rule as the data show it: active = GI50 up to about 1.1 µM and inactive = higher.
Entry note: the call must match one of active, inactive

[[record]]
compound = "CO[C@@H]1[C@@H](OC2OC(C)C(OC3CC(C)(O)C(OC(=O)CC(C)C)C(C)O3)C(N(C)C)C2O)[C@@H](CC=O)C[C@@H](C)C(=O)/C=C/C2O[C@H]2C[C@@H](C)OC(=O)C[C@H]1OC(C)=O (stereo not given in full)"
assigned_label = "inactive"

[[record]]
compound = "COc1cccc(-c2cc(O)c3c(C)cc(C)nc3n2)c1"
assigned_label = "active"

[[record]]
compound = "COc1ccc(/N=C2\\C(=O)Nc3ccc(Br)cc32)cc1"
assigned_label = "inactive"


Assay outcome for N#C/C(=N/Nc1[nH]cnc1C(N)=O)C(=O)Nc1ccccc1 : what was it?
inactive

Assay outcome for CCOC(=O)C(NC(=O)Nc1ccc(Cl)cc1)(OC)C(F)(F)F (stereo not given) : what was it?
inactive

Assay outcome for C=CCNC(=O)N1CC(C)C(=O)Nc2ccccc21 (stereo not given) : what was it?
inactive

Assay outcome for O=C(c1ccccc1)n1cc(/C=C/[N+](=O)[O-])c2ccccc21 : what was it?
inactive

Assay outcome for CSc1ccc(/C=C2\N=C(c3ccccc3)N(/N=C/c3cc4cc(C)ccc4nc3Cl)C2=O)cc1 : what was it?
inactive

Assay outcome for COc1ccc(C(=O)C(Br)C(Br)C(=O)O)cc1 (stereo not given) : what was it?
inactive

Assay outcome for Cc1nc(C)c(N2CCN(C#N)CC2)c(O)n1 : what was it?
inactive
